Target: HDAC10 (Homo sapiens, UniProt Q969S8)
Sequence (Q969S8 whole entry): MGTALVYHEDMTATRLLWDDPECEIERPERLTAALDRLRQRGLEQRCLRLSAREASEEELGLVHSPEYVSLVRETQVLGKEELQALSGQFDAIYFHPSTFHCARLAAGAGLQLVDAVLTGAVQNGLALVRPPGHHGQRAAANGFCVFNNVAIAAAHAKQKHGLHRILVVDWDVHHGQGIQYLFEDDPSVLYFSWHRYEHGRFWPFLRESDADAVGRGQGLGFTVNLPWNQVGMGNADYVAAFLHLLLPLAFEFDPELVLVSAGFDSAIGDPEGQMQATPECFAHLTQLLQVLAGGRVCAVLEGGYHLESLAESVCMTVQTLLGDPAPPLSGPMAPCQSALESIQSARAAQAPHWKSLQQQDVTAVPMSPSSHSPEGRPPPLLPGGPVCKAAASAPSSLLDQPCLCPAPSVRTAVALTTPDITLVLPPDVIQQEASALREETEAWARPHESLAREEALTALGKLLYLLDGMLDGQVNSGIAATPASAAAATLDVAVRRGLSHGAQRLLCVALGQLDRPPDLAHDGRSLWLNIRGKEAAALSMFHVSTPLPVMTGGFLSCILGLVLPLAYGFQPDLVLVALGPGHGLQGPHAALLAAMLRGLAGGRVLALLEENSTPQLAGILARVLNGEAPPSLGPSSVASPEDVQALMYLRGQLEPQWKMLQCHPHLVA
Experiment: HDAC10 isozyme inhibition
Type: biochemical
Settings: selectivity index
Metric: SI HDAC10/6
One number for each entry.

Study these solved cases before continuing.
O=C(CCCc1cc(C(=O)NO)no1)Nc1nc(-c2ccccc2)cs1 | 10
CCOC(=O)Nc1cccc(-c2csc(NC(=O)CCc3cc(C(=O)NO)no3)n2)c1 | 82
O=C(NO)c1ccc(CNC(=O)c2cc(-c3ccc(NC(=O)C4CCCCC4)cc3)on2)cc1 | 38
O=C(NO)c1ccc(CNC(=O)c2cc(Cn3c4ccccc4c4ccccc43)on2)cc1 | 37000
CC(C)(C)C(=O)Nc1cccc(-c2cc(C(=O)NCCc3cc(C(=O)NO)no3)no2)c1 | 1910
Nc1cccc(-c2cc(C(=O)NCCc3cc(C(=O)NO)no3)no2)c1 | 315

I have 2 compounds here; please give me SI HDAC10/6 for each one.
1. CCOC(=O)Nc1ccc(-c2csc(NC(=O)CCCc3cc(C(=O)NO)no3)n2)cc1
2. CC(C)(C)OC(=O)Nc1ccc(-c2cc(C(=O)NCc3ccc(C(=O)NO)cc3)no2)cc1

A:
6.6
9580

I have 5 compounds here; please give me SI HDAC10/6 for each one.
1. O=C(Nc1cccc(-c2cc(C(=O)NCCc3cc(C(=O)NO)no3)no2)c1)c1ccccc1
2. O=C(NO)c1ccc(CNC(=O)c2cc(-c3cccc(NC(=O)C4CCCCC4)c3)on2)cc1
3. O=C(CCc1cc(C(=O)NO)no1)Nc1nc(-c2ccccc2)cs1
4. CCOC(=O)Nc1ccc(-c2cc(C(=O)NCCc3cc(C(=O)NO)no3)no2)cc1
5. CC(C)(C)OC(=O)Nc1cccc(-c2cc(C(=O)NCc3ccc(C(=O)NO)cc3)no2)c1

A:
1: 1050; 2: 73; 3: 13; 4: 123; 5: 4270

---

Target: HDAC3 (Homo sapiens, UniProt O15379)
Sequence (O15379 whole entry): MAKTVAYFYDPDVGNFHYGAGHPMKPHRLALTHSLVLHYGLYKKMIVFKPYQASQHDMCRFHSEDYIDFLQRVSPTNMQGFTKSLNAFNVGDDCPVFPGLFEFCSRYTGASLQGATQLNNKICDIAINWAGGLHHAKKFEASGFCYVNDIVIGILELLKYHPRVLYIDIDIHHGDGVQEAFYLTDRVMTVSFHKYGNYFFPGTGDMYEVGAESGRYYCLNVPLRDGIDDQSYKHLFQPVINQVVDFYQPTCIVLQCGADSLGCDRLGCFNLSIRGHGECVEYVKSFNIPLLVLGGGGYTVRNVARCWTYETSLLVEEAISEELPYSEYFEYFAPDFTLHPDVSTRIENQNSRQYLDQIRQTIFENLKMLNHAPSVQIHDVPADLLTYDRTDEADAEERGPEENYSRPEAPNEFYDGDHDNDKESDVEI
Sequence (Q9Y618 395-489 partner limits assumed): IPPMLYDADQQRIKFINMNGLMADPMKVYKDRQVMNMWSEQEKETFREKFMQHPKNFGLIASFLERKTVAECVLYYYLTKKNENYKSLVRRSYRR
Assay: HDAC3 isozyme inhibition
Type: biochemical
Conditions: read-out: HDAC Isoform, IC50, Class I, 3; singlet, 10-dose IC50 mode, 3-fold serial dilution starting at 30 μM; >50000 = no inhibition at 50 μM
pIC50: −log10 of the molar value.
Please respond with reported pIC50 for every item in the list.

CC(C)(C)C(=O)Nc1cccc(-c2cc(C(=O)NCCc3cc(C(=O)NO)no3)no2)c1 [Compound 10] | < 4.30

I have 2 compounds here; please give me pIC50 for each one.
1. O=C(CCc1cc(C(=O)NO)no1)Nc1nc(-c2ccccc2)cs1 [Compound 2]
2. CC(C)(C)OC(=O)Nc1cccc(-c2cc(C(=O)NCCc3cc(C(=O)NO)no3)no2)c1 [Compound 7]

A:
1: 6.49; 2: < 4.30

---

Target: HDAC3 (Homo sapiens, UniProt O15379)
Test: HDAC3 isozyme inhibition
Format: biochemical
Metric: IC50 (µM)
Numbers only, in µM.

Q: Bench note: what IC50 did O=C(NO)c1cc(Cn2c3ccccc3c3ccccc32)on1 [Compound 17] show?
A: 44

---

Biological target: HDAC2 (Homo sapiens, UniProt Q92769)
Sequence (Q92769 whole entry): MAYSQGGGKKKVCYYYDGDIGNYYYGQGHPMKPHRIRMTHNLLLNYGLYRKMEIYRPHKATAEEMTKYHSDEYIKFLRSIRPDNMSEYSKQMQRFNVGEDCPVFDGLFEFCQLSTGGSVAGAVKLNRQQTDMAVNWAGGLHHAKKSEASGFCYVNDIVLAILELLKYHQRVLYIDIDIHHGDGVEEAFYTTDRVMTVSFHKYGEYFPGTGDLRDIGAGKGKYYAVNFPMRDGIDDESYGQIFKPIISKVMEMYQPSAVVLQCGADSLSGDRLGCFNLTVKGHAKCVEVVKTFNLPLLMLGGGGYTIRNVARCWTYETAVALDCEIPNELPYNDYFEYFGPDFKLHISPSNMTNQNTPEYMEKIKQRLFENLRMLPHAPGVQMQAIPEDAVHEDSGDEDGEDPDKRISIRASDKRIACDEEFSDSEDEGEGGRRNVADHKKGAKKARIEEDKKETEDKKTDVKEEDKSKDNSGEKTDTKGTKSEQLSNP
Test: HDAC2 isozyme inhibition
Type: biochemical
Conditions: selectivity index
Please respond with reported SI HDAC2/6 for every item in the list.
Answers are plain numbers.

CCOC(=O)Nc1ccc(-c2cc(C(=O)NCCc3cc(C(=O)NO)no3)no2)cc1 [Compound 8] | 409

I have 5 compounds here; please give me SI HDAC2/6 for each one.
1. O=C(Nc1cccc(-c2cc(C(=O)NCCc3cc(C(=O)NO)no3)no2)c1)c1ccccc1 [Compound 12]
2. CC(C)(C)OC(=O)Nc1cccc(-c2cc(C(=O)NCc3ccc(C(=O)NO)cc3)no2)c1 [Compound 14]
3. O=C(NO)c1ccc(CNC(=O)c2cc(-c3ccc(NC(=O)C4CCCCC4)cc3)on2)cc1 [Compound 15]
4. CC(C)(C)OC(=O)Nc1ccc(-c2cc(C(=O)NCc3ccc(C(=O)NO)cc3)no2)cc1 [Compound 13]
5. CC(C)(C)OC(=O)Nc1ccc(-c2csc(NC(=O)CCCc3cc(C(=O)NO)no3)n2)cc1 [Compound 3]

A:
1. 2360
2. 2160
3. 461
4. 5760
5. 28

I have 7 compounds here; please give me SI HDAC2/6 for each one.
1. O=C(NO)c1ccc(CNC(=O)c2cc(-c3cccc(NC(=O)C4CCCCC4)c3)on2)cc1 [Compound 16]
2. Nc1cccc(-c2cc(C(=O)NCCc3cc(C(=O)NO)no3)no2)c1 [Compound 9]
3. O=C(CCCc1cc(C(=O)NO)no1)Nc1nc(-c2ccccc2)cs1 [Compound 1]
4. CCOC(=O)Nc1ccc(-c2csc(NC(=O)CCCc3cc(C(=O)NO)no3)n2)cc1 [Compound 4]
5. CCOC(=O)Nc1cccc(-c2csc(NC(=O)CCc3cc(C(=O)NO)no3)n2)c1 [Compound 5]
6. O=C(CCc1cc(C(=O)NO)no1)Nc1nc(-c2ccccc2)cs1 [Compound 2]
7. O=C(NO)c1ccc(CNC(=O)c2cc(Cn3c4ccccc4c4ccccc43)on2)cc1 [Compound 18]

A:
1: 1650; 2: 140; 3: 15; 4: 17; 5: 333; 6: 37; 7: 2280
